- Test system: Leishmania donovani
- Method: Leishmania intramacrophage assay
- Assay type: functional, organism-based
- Design: scale not given: in the data most compounds retested in dose-response had high values
- Applied conditions: 30.3 µM; […]
In all, about 69,000 compounds went through this assay and about 1,000 (1.4%) showed an effect of 50% or more. The sample as a whole holds a higher share of strong results than the screen did.
Result type: Percent Effect
Give the figure together with its unit, number first.

Query: Reported Percent Effect for c1csc(-c2cc(CN3CCN(c4nccs4)CC3)no2)c1 : what is it?
Reply: 21.99%

Query: Also CCOCC1c2c(ncn2C(C)C)CCN1C(=O)C1CC1 (stereo not given) , if possible.
Reply: 23.55%

Query: Also O=C1N(CCCc2ccccc2)CCCC1(O)CNCC1CCCCC1 (stereo not given) , if possible.
Reply: 36.42%

Query: Also COCCN(Cc1ccccc1Cl)c1nc(CCN)nc2ccccc12 , if possible.
Reply: 98.78%

Query: Also COc1ccccc1CNC(=O)c1[nH]ncc1Cl , if possible.
Reply: -12.27%

New cases:
Query: Reported Percent Effect for c1cc(NCc2ccsc2)cc(-c2nnc[nH]2)c1 : what is it?
Reply: 34.15%

Query: Also COc1ccccc1Nc1nc2c(C)nn(C)c2c(=O)n1C , if possible.
Reply: -67.83%

Query: Also Cc1cc(CN2CC[C@@H]3[C@@H](CCC(=O)N3CCc3c[nH]cn3)C2)oc1C , if possible.
Reply: 21.24%

Query: Also N#Cc1c(Cl)nsc1NCc1cccnc1OCC(F)(F)F , if possible.
Reply: 71.75%

Query: Also OC[C@@H]1CCCN1c1ccc(-c2nc(COc3ccccc3)no2)cn1 , if possible.
Reply: -6.4%

Query: Also O=C1OCCN1CCNCC1(O)CCCN(CCC2CCCCC2)C1=O (stereo not given) , if possible.
Reply: 27.13%

Query: Also Cc1nnc(CN(C)S(=O)(=O)c2ccc(Br)cc2Cl)n1C , if possible.
Reply: 25.06%

----------
Percent Effect values, listed per item
- Tested on: Leishmania donovani
- Method: Leishmania intramacrophage assay
- Type: functional, organism-based
- Design: scale not given: in the data most compounds retested in dose-response had high values
- Applied conditions: 30.3 µM; […]
The whole screen tested about 69,000 compounds, of which about 1,000 (1.4%) showed an effect of 50% or more. The sample as a whole holds a higher share of strong results than the screen did.
# unit: % | format: bare number

Example entries and their recorded answers appear below.
Query: Reported Percent Effect for CC(C)c1cc(C(=O)O)nc2[nH]c(=O)[nH]c(=O)c12 : what is it?
Reply: -5.63

Query: Also CC1CCN(c2ccc(NC(=O)CCn3cccn3)cc2)CC1 , if possible.
Reply: 16.17

Query: Also CCNc1ncc(CN(CCN(C)C)Cc2ccc(C)s2)cn1 , if possible.
Reply: 7.089

Query: Also Cc1cc2nc(O)c(O)nc2cc1S(=O)(=O)NC1CC1 , if possible.
Reply: 53.32

Query: Also CCc1nc(C)cc(N2CCCC(C(=O)c3ccc(OC)cc3C)C2)n1 (stereo not drawn) , if possible.
Reply: 50.79

Query: Also COCCn1cc(NCc2cn(C)nc2-c2ccncc2)cn1 , if possible.
Reply: 4.13

Query: Also Cc1noc([C@@H]2C[C@H]3CN(C(=O)C4CCN(C)CC4)C[C@H]3O2)n1.O=C(O)C(F)(F)F , if possible.
Reply: 33.07

Query: Also CCN(CC)C(=O)c1nc2c(s1)CCN(Cc1cccc(OC)c1)CC2.O=C(O)C(F)(F)F , if possible.
Reply: -7.279

New cases:
Query: Reported Percent Effect for COc1ccc(C(=O)C2CCCN(c3cc(OC)ncn3)C2)c(C)c1 (stereo not drawn) : what is it?
Reply: 27.19

Query: Also Cc1cc2[nH]c(=O)c(=O)[nH]c2cc1S(=O)(=O)NC1CCC(C)CC1 (stereo not drawn) , if possible.
Reply: 6.826

Query: Also Cc1nn(C)c2cn(CC(=O)N3CCN(c4ccccc4)CC3)nc12 , if possible.
Reply: 30.49

Query: Also COc1ccc(C(=O)C2CCCN(c3cc(N)ncn3)C2)c(C)c1 (stereo not drawn) , if possible.
Reply: 55.56

----------
- System: Leishmania donovani
- Method: Leishmania intramacrophage assay
- Assay type: functional, organism-based
- Design: scale not given: in the data most compounds retested in dose-response had high values
- Applied conditions: 30.3 µM; […]
The whole screen tested about 69,000 compounds, of which about 1,000 (1.4%) showed an effect of 50% or more. Shown is part of a subset that was picked to be rich in strong results.
Percent Effect values, listed per item
# unit: % | format: bare number

Example entries and their recorded answers appear below.
Query: Reported Percent Effect for CC(NCC(N)=O)c1c(F)cccc1Cl (stereo not drawn) : what is it?
Reply: 61.56

Query: Also O=S(=O)(c1c(Cl)nc2sccn12)N1CCCC2(CCNC2)C1 (stereo not drawn) , if possible.
Reply: 49.51

Query: Also Cc1cc(C(=O)N2C[C@H]3CC[C@@H]2CN(Cc2ccccn2)C3)nc(C)n1 , if possible.
Reply: 16.91

Query: Also O=S(=O)(c1c(Cl)nc2sccn12)N1CCC2(CCNCC2)C1 , if possible.
Reply: 51.47

Query: Also CCN1CCCC1Cn1ccc2ccc(C(=O)OC)cc2c1=O (stereo not drawn) , if possible.
Reply: -29.19

Query: Also Cc1ccccc1-n1cnc(Cl)c1CO , if possible.
Reply: 0.1894

Query: Also CC(C)NC(=O)CNC(C)c1c(F)cccc1Cl (stereo not drawn) , if possible.
Reply: -24.44

Query: Also CCc1c(C(=O)N2CCN(C)[C@@H]3CS(=O)(=O)C[C@@H]32)[nH]c2ccccc12 , if possible.
Reply: -15.51

Query: Also CN1CCCC2(CCN(S(=O)(=O)c3c(Cl)nc4sccn34)C2)C1=O (stereo not drawn) , if possible.
Reply: 41

Query: Also CC(CN1CCOCC1)NC(=O)c1cccc2cn[nH]c12 (stereo not drawn) , if possible.
Reply: 18.62

Now take the following molecule into account.
Query: Reported Percent Effect for CN(C)S(=O)(=O)c1ccc(CNC(=O)C2CC(=O)N(C(C)(C)C)C2)cc1 (stereo not drawn) : what is it?
Reply: 21.08

----------
- System: Leishmania donovani
- Method: Leishmania intramacrophage assay
- Format: functional, organism-based
- Set-up: scale not given: in the data most compounds retested in dose-response had high values
- Applied conditions: 30.3 µM; […]
Among all 69,000 compounds or so, about 1,000 (1.4%) showed an effect of 50% or more. The list comes from a sample in which strong results are over-represented; it also holds close analogues and randomly drawn compounds.
Percent Effect values, listed per item
# unit: % | format: bare number

Example entries and their recorded answers appear below.
Query: Reported Percent Effect for Cc1cc(C)c2c(NCC3(O)CCCCC3)ncnc2n1 : what is it?
Reply: -4.66

Query: Also CCCc1nnsc1C(=O)NCC1CCN(c2ncccn2)CC1 , if possible.
Reply: 10.89

Query: Also CCN1CCN(C[C@@H]2CN(c3ncccc3Cl)C[C@@H]2CO)CC1 , if possible.
Reply: 25.54

Query: Also CCN1CCN(C[C@@H]2CN(c3ncc(Cl)cc3F)C[C@@H]2CO)CC1 , if possible.
Reply: 46.16

Query: Also CCCN(CC(=O)N(C)C)C(=O)c1ccc(-c2nc(C)cs2)cc1 , if possible.
Reply: 65.78

New cases:
Query: Reported Percent Effect for CCCNCc1ccc(OCc2ccc3c(c2)OCCO3)cc1.Cl : what is it?
Reply: 67.66

Query: Also CCN(CC(=O)N(C)C)C(=O)c1ccc(-c2nc(C)cs2)cc1 , if possible.
Reply: -16.68

Query: Also CNCc1ccc(OCc2ccc3c(c2)OCCO3)cc1.Cl , if possible.
Reply: 22.52

----------
- System: Leishmania donovani
- Method: Leishmania intramacrophage assay
- Format: functional, organism-based
- Design: scale not given: in the data most compounds retested in dose-response had high values
- Applied conditions: 30.3 µM; […]
Out of some 69,000 compounds screened, about 1,000 (1.4%) showed an effect of 50% or more. Shown is part of a subset that was picked to be rich in strong results.
Result type: Percent Effect (%)
# unit: % | format: bare number

Query: Reported Percent Effect for CN1C(=O)C2(CCN(C(=O)c3ccccc3)CC2)c2cc(F)ccc21.Cl : what is it?
Reply: 50.2

New cases:
Query: Reported Percent Effect for COc1cc(NCc2ccncc2)c(-c2nn[nH]n2)cc1OC : what is it?
Reply: -13.14

Query: Also CC(=O)N1CCC2(CC1)C(=O)N(C)c1ccc(F)cc12 , if possible.
Reply: 29.57

Query: Also COc1ccc(C2CCCN2C(=O)NCCCn2cccn2)cc1 (configuration not stated) , if possible.
Reply: 9.048

Query: Also Cc1cc(NCc2ccc(S(N)(=O)=O)cc2)nc(C)n1 , if possible.
Reply: 22.51

Query: Also Cc1cc2nc(C(C)C)cc(N3CCC(Oc4ncccn4)CC3)n2n1 , if possible.
Reply: 83.06

Source listed as ChEMBL document CHEMBL3988442.
